test system: SF-295 CNS; test: NCI-60 one-dose screen, 48 h; details: 10 µM unless noted
This is part of a sample that, as a whole, favours compounds with a hit. Of some 83,000 tested, about 20% had one in any assay. Activity calls are given as the source filed them. Rule for the calls: active = growth percent below 10; inactive = the rest.
Possible outcomes: 1 (yes) = active, 0 (no) = inactive

COMPOUND	CLASS
O=C(c1ccccc1)c1ccc(Cl)c([N+](=O)[O-])c1	0 (no)
COc1ccc(-c2cc(-c3ccc(Nc4nc(Nc5ccccc5)nc(Nc5ccc(Cl)cc5)n4)cc3)nc(N)c2C#N)cc1	0 (no)
CCCCCOC(=O)c1cccc(NC(=O)CN(CC)CC)c1	0 (no)
NS(=O)(=O)c1cnccc1-n1ccc(=O)c(S(N)(=O)=O)c1	0 (no)
C(=C\c1nc2ccccc2[nH]1)/c1nc2ccccc2[nH]1	0 (no)
O=C1C2=C(CCN(Cc3ccccc3)C2)N2CCN=C2N1Cc1ccc(C(F)(F)F)cc1	1 (yes)
C=C(C)[C@@H]1CC[C@]2(CNCCO)CC[C@]3(C)[C@H](CC[C@@H]4[C@@]5(C)CCC(N)[C@@](C)(CO)[C@@H]5CC[C@]43C)[C@@H]12 (stereo partly specified)	1 (yes)
O=C1Nc2ccccc2SC1c1ccccc1Cl (stereo unspecified)	0 (no)
CS(=O)(=O)c1ccc(-c2[nH]c3ccc(F)cc3c2/C=N/O)cc1	0 (no)
Clc1cnc(Nc2ccc(OCCN3CCCC3)cc2)nc1NCc1ccco1	0 (no)
COc1cc2oc(-c3cccc(C(=O)Nc4ccc(C)cc4)c3)cc(=O)c2c(OC)c1OC	1 (yes)
CSc1nc(N)c(CNC(C)c2ccccc2)c(=O)n1C (stereo unspecified)	0 (no)
COc1cccc(CCC2CCCN(c3cc(C)nc(N)n3)C2)c1 (stereo unspecified)	0 (no)
CCOC(=O)c1nnn(C(Cc2ccccc2Cl)C(=O)OCC)c1C (stereo unspecified)	0 (no)
Nc1ccc(S(=O)(=O)Nc2ccsc2-c2nc(-c3ccccc3)no2)cc1	0 (no)
CC1(C)CC(=O)c2c(ccc(C(=O)C[C@H](N)CO)c2N)O1	0 (no)
O=C1NCC(=O)N(Cc2ccco2)[C@H]1Cc1ccccc1	0 (no)
COC(=O)c1ccc2oc(NC(=O)c3ccc(N4CCOCC4)c([N+](=O)[O-])c3)nc2c1	0 (no)
COc1cc2ccccc2cc1C(=O)NC(=S)Nc1ccc(-c2nc3ccccc3[nH]2)cc1	0 (no)
O=C1N(c2ccccc2)C(=S)N[C@]12[C@H](c1ccccc1)C1CCCN1[C@]21C(=O)NC2C=CC(Cl)=C[C@H]21 (stereo partly specified)	0 (no)
O=C(Oc1ccc[nH]c1=O)c1cc([N+](=O)[O-])cc([N+](=O)[O-])c1	0 (no)

Entry source: PubChem BioAssay (NCI)
